Target: T1, human CD45 receptor on the surface of human T cells (human, UniProt P08575 26-1306)
T1 construct: whole, on cells; also called cellular CD45; leukocyte common antigen
T1 sequence (looked up): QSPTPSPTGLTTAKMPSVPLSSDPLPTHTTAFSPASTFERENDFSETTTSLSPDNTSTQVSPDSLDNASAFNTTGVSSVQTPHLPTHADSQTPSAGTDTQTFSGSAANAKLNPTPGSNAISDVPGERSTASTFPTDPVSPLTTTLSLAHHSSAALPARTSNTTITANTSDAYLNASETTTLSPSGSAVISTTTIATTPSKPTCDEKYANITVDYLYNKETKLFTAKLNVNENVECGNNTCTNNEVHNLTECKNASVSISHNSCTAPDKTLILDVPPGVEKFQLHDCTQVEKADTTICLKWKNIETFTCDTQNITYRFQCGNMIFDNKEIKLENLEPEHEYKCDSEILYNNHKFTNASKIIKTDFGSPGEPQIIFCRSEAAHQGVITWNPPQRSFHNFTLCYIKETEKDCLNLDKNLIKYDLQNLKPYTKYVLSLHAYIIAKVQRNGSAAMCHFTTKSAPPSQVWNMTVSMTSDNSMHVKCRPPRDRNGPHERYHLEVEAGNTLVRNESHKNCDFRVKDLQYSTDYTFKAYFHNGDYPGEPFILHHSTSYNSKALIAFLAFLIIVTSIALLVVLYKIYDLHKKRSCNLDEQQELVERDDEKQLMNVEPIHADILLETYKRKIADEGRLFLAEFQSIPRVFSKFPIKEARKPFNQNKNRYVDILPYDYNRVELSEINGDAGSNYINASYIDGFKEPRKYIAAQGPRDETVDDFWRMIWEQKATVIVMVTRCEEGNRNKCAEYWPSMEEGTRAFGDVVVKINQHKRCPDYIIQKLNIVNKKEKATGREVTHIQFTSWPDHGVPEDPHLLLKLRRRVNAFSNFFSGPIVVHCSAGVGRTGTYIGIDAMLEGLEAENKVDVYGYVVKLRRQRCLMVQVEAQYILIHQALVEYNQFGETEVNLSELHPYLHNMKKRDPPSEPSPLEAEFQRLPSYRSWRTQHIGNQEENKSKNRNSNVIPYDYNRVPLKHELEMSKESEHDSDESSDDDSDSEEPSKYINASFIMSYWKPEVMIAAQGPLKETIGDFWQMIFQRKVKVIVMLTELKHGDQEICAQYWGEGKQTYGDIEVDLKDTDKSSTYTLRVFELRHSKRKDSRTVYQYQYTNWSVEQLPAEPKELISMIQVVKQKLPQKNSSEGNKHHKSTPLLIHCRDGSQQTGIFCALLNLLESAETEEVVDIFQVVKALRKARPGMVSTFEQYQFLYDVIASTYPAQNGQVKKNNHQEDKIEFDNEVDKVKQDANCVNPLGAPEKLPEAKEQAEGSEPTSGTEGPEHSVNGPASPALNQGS
Assay: apparent KD (KD,app); flow cytometry titration of IgG on activated primary human CD8 T cells, 4-parameter fit
Method: For comparison with previous results we evaluated these antibodies alongside chBC8, hBC8(23), and a non-binding variant hBC8-null. […] Cell binding assay. […] Cells were washed with MACS buffer (PBS, 2% FBS, 1 mM EDTA) three times, and antibody binding was detected using a PE-conjugated anti-human IgG-Fc antibody (BioLegend, cat. no. HP6017) for 20 min. at 4° C. […]
Below, each of the binders is paired with its reported Kd value.
Output spec: scalar in nM, unitless text.

Examples from the recorded data:
ch9.4 chimeric IgG anti-CD45 antibody (antibody, V domains shown, Chimeric IgG: mouse variable domains, human constant kappa domain and human IgG4 with S228P) VH: QVQLQQLGAELARPGASVKMSCKASGYTFTSYSIQWVKQRPGQGLEWIGYINPSSGYIKYNQHFRDRATLTADRSSSTAYMQLSSLTSEDSAVYYCARGNSGSFDYWGQGTTLTVSS VL: DIVMTQAAPSVPVTPGESLSISCRSSKSLLHSSGITYLYWFLQRPGQSPQLLIYRMSNLASGVPDRFSGSGSGTAFTLRISRVEAEDVGVYYCMQHLEYPFTFGGGTKLEIK; 0.84
ch4B2 chimeric IgG anti-CD45 antibody (antibody, V domains shown, Chimeric IgG: mouse variable domains, human constant kappa domain and human IgG4 with S228P) VH: QVQLQQSGAELARPGASVKMSCKASGYTFTSYTMQWVKQRPGQGLEWIGYINPSSGYIKYNQKFKDKVTLTADKSSTTAYMQLSRLTSEDSAVYYCARRGSYFFDFWGQGTSVTVSS VL: DIVITQDELSNPVTSGESVSISCRSSKSLLYKDGKTYLNWFLQRPGQSPQLLIYLMSTRASGVSDRFSGSGSGTDFTLEISRVKAEDVGVYYCQQLVEYPFTFGGGTKLEVK; 0.44
chBC8 chimeric IgG anti-CD45 antibody (IgG4-S228P) (antibody, V domains shown, also called chBC8 IgG; chimeric BC8) VH: QVQLVESGGGLVQPGGSLKLSCAASGFDFSRYWMSWVRQAPGKGLEWIGEINPTSSTINFTPSLKDKVFISRDNAKNTLYLQMSKVRSEDTALYYCARGNYYRYGDAMDYWGQGTSVTVSS VL: DIVLTQSPASLAVSLGQRATISCRASKSVSTSGYSYLHWYQQKPGQPPKLLIYLASNLESGVPARFSGSGSGTDFTLNIHPVEEEDAATYYCQHSRELPFTFGSGTKLEIKR; 6.68

Note: attention shifts to another entry.
Asked: GET /values?readout=Kd&item= hBC8(23) humanized BC8 anti-CD45 antibody (IgG form) (antibody, V domains shown, Tested as an antibody detected with anti-human IgG-Fc; its constant regions are not spelled out for the humanized antibody) VH: EVQLVESGGGLVQPGGSLRLSCAASGFDFSRYWMSWVRQAPGKGLEWIGEINPTSSTINFADSVKGRFTISRDNAKNSLYLQMNSVRDEDTAVYYCARGNYYRYGDAMDYWGQGTLVTVSS VL: EIVLTQSPATLSLSLGERATISCRASKSVSTSGYSYLHWYQQKPGQAPKLLIYLASNRATGVPARFSGSGPGTDFTLTISSLEPEDFATYYCQHSRELPFTFGQGTKLEIK
Given back: 7.8
